target: Phosphatidylinositol 4,5-bisphosphate 3-kinase catalytic subunit alpha isoform (Homo sapiens)
Sequence (P42336 whole entry, canonical isoform): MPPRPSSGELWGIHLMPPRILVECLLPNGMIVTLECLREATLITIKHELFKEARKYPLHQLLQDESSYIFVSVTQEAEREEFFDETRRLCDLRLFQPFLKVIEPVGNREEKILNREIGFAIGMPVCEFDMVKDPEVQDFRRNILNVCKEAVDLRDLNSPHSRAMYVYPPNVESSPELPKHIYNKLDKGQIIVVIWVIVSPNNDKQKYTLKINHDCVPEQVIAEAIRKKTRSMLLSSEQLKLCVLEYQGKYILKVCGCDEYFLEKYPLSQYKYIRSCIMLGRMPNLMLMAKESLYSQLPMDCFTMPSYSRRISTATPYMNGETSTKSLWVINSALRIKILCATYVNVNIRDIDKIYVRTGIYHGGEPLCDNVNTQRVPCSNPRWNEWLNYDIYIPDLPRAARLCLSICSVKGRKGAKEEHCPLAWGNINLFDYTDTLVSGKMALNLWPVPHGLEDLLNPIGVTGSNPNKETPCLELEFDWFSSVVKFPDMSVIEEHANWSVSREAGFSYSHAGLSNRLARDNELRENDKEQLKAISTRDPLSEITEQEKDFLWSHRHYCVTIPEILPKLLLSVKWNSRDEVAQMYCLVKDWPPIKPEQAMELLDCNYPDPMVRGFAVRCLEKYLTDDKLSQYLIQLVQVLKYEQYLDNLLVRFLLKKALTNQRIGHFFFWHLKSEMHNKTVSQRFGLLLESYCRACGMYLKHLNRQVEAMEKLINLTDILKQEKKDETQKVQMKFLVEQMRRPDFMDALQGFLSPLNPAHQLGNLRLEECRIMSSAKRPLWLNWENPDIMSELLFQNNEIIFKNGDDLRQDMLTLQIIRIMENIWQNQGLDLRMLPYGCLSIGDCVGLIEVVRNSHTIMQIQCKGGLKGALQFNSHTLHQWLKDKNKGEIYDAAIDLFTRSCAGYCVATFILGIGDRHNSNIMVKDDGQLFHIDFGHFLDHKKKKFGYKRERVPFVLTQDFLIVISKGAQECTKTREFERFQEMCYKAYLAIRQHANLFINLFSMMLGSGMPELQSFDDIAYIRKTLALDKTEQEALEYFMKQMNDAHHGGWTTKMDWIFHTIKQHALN
MEASURE NAME: IC50 (µM)

- MOLECULE: "C[C@H]1COCCN1c1cc(CS(C)(=O)=O)nc(-c2cccc(O)c2)n1"
  IC50 / µM: 1
- MOLECULE: "Oc1cccc(-c2nccc(C34CCOCC3C4)n2)c1 (stereo not given)"
  IC50 / µM: 6.31
- MOLECULE: "CCNC(=O)Nc1ccc(-c2nccc(C34CCOCC3C4)n2)cc1 (stereo not given)"
  IC50 / µM: 12.6
- MOLECULE: "CC(C)(c1cc([C@@]23CCOC[C@@H]2C3)nc(-c2cccc(O)c2)n1)S(C)(=O)=O"
  IC50 / µM: 10
- MOLECULE: "CCNC(=O)Nc1ccc(-c2nccc(C3=CCOCC3)n2)cc1"
  IC50 / µM: 20
- MOLECULE: "Oc1cccc(-c2nccc(C3=CCOCC3)n2)c1"
  IC50 / µM: 3.16

A = CNCC(=O)Nc1ccc(-c2nc(C(C)(C)S(C)(=O)=O)cc([C@@]34CCOC[C@@H]3C4)n2)cc1
B = CS(=O)(=O)Cc1cc([C@@]23CCOC[C@@H]2C3)nc(-c2cccc(O)c2)n1
C = Oc1cccc(-c2nccc(N3CCOCC3)n2)c1
D = C[C@H]1COCCN1c1ccnc(-c2cccc(O)c2)n1
Output the entries ranked by IC50 from maximum down to minimum. List the labels in the requested order. A, B, D, C
(A: 25.1 µM, B: 7.94 µM, D: 1.58 µM, C: 0.501 µM)

---

test: Lipophilicity, logP of the compound by reversed phase column chromatography; assay type: physicochemical
MEASURE NAME: logP

- COMPOUND: "C[C@H]1COCCN1c1cc(C(C)(C)S(C)(=O)=O)nc(-c2ccc(NC(=S)NCCO)cc2)n1"
  VAL: 3.6
- COMPOUND: "CCNC(=O)Nc1ccc(-c2nccc(C34CCOCC3C4)n2)cc1 (centres undefined)"
  VAL: 4
- COMPOUND: "C[C@H]1COCCN1c1cc(CS(C)(=O)=O)nc(-c2cccc(O)c2)n1"
  VAL: 3.3
- COMPOUND: "Oc1cccc(-c2nccc(C3CCOCC3)n2)c1"
  VAL: 3.3
- COMPOUND: "CC(C)(c1cc([C@@]23CCOC[C@@H]2C3)nc(-c2ccc(NC(=S)NCCO)cc2)n1)S(C)(=O)=O"
  VAL: 3.9

I = CCNC(=O)Nc1ccc(-c2nccc([C@@]34CCOC[C@@H]3C4)n2)cc1
II = CCNC(=O)Nc1ccc(-c2nc(CS(C)(=O)=O)cc(N3CCOCC3)n2)cc1
Parameter check: reported logP is higher for which label, I or II ? Kindly give the label for the entry you pick. I

P = CCNC(=O)Nc1ccc(-c2nc(C(C)(C)S(C)(=O)=O)cc([C@]34CCOC[C@H]3C4)n2)cc1
Q = CCNC(=O)Nc1ccc(-c2nc(CS(C)(=O)=O)cc(N3CCOC[C@@H]3C)n2)cc1
Parameter check: reported logP is higher for which label, P or Q ? Kindly give the label for the entry you pick. P

P = C[C@H]1COCCN1c1cc(C(C)(C)S(C)(=O)=O)nc(-c2cccc(O)c2)n1
Q = CCNC(=O)Nc1ccc(-c2nccc(N3CCOCC3)n2)cc1
Parameter check: reported logP is higher for which label, P or Q ? Kindly give the label for the entry you pick. P
